# Test system: Influenza A virus
# experimental-details: microbe, parasite or virus in culture
# measurement-conditions: A/Puerto Rico/8/1934(H1N1), MDCK, 48 h
recorded-metric: EC50 (µM)
Your answer is read as µM, so omit the unit and give the number.

Task: Field request: EC50 | item: CCC(CC)Oc1ccc(CN[C@H]2CC(C(=O)O)=C[C@@H](OC(CC)CC)[C@@H]2NC(C)=O)cc1
Result: 13

Task: // repeat for CCC(CC)O[C@@H]1C=C(C(=O)O)C[C@H](NCc2ccc(-c3cc4ccccc4s3)cc2)[C@H]1NC(C)=O and report
Result: 7.2

Task: // repeat for CCC(CC)O[C@@H]1C=C(C(=O)O)C[C@H](NCc2ccc(OC)cc2)[C@H]1NC(C)=O and report
Result: 3.7

Task: // repeat for CCC(CC)O[C@@H]1C=C(C(=O)O)C[C@H](NCc2ccc(SC3CCCCC3)cc2)[C@H]1NC(C)=O and report
Result: 17

Task: // repeat for CCC(CC)O[C@@H]1C=C(C(=O)O)C[C@H](NCc2ccc(Sc3ccccc3)cc2)[C@H]1NC(C)=O and report
Result: 0.06

Task: // repeat for CCC(CC)O[C@@H]1C=C(C(=O)O)C[C@H](N)[C@H]1NC(C)=O [OSELTAMIVIR CARBOXYLATE] and report
Result: 0.041

Task: // repeat for CC(=O)N[C@H]1[C@H]([C@H](O)[C@H](O)CO)OC(C(=O)O)=C[C@@H]1NC(=N)N [ZANAMIVIR] and report
Result: 0.038

Task: // repeat for CCC(CC)O[C@@H]1C=C(C(=O)O)C[C@H](NCc2ccc(Sc3cccs3)cc2)[C@H]1NC(C)=O and report
Result: 0.04

====

# experimental-details: MRT (0 to infinity) in Sprague-Dawley rat at 20 mg/kg, po by LC-MS analysis
# Format: ADME, organism-based
# measurement-conditions: in vivo
I'd appreciate it if you could supply MRT inf values for the items below.
Your answer is read as h, so omit the unit and give the number.

Task: Field request: MRT inf | item: CCOC(=O)C1=C[C@@H](OC(CC)CC)[C@H](NC(C)=O)[C@@H](NCc2ccc(Sc3ccccc3)cc2)C1
Result: 17.1

Task: // repeat for CCC(CC)O[C@@H]1C=C(C(=O)O)C[C@H](NCc2ccc(Sc3ccccc3)cc2)[C@H]1NC(C)=O and report
Result: 4.05

====

I'd appreciate it if you could supply bioavailability values for the items below.
# experimental-details: Oral bioavailability in Sprague-Dawley rat at 20 mg/kg by LC-MS analysis
# Type: ADME, organism-based
# measurement-conditions: in vivo
Your answer is read as %, so omit the unit and give the number.

Task: Field request: bioavailability | item: CCOC(=O)C1=C[C@@H](OC(CC)CC)[C@H](NC(C)=O)[C@@H](NCc2ccc(Sc3ccccc3)cc2)C1
Result: 7.1

Task: // repeat for CCC(CC)O[C@@H]1C=C(C(=O)O)C[C@H](NCc2ccc(Sc3ccccc3)cc2)[C@H]1NC(C)=O and report
Result: 10.3

====

# experimental-details: in vitro
# measurement-conditions: human, liver microsomes
recorded-metric: remaining at 1 h, 2 uL
Answer with the value and then the unit.

Task: Field request: remaining at 1 h, 2 uL | item: O=C(O)Cc1ccccc1Nc1c(Cl)cccc1Cl [DICLOFENAC]
Result: 5.4%

Task: // repeat for CCC(CC)O[C@@H]1C=C(C(=O)O)C[C@H](NCc2ccc(Sc3ccccc3)cc2)[C@H]1NC(C)=O and report
Result: 101%
